Assay: recombinant UMI read abundance after kanamycin selection (control-corrected) (log10(CPM+1)); higher = more efficient recombination; extreme values may be limits of the assay; sequences stand for … in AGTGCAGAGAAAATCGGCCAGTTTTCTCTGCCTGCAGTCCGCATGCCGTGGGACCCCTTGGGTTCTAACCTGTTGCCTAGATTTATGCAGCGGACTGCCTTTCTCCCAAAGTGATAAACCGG…AGGTTGGTTTCACT; site = the 11-nt donor;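 also: IS621 bridge recombinase in Escherichia coli cells against a fixed T5 target plasmid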
Output 1.0 for recombinant UMI read abundance (log10) not less than 0.1; output 0.0 otherwise.

GGATAGACATGGACCGGTTTTCCCGGTAATCCGTATTTGCA (site GGATAGACTAG) = 1.0
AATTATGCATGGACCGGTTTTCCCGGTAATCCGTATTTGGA (site AATTATGCTTC) = 1.0
CAACCGCCATGGACCGGTTTTCCCGGTAATCCGTATTTGTG (site CAACCGCCTCA) = 0.0
GAGCCCACATGGACCGGTTTTCCCGGTAATCCGTATTTGAT (site GAGCTCACTAT) = 0.0
TGCTGCACATGGACCGGTTTTCCCGGTAATCCGTATTTGAA (site TGCTGCACTTT) = 0.0
GCGAAGACATGGACCGGTTTTCCCGGTAATCCGTATTTGCT (site GCGAACACTAG) = 1.0
AGGAATACATGGACCGGTTTTCCCGGTAATCCGTATTTGAC (site AGGAATACTGT) = 1.0
AGGTCATCATGGACCGGTTTTCCCGGTAATCCGTATTTGCT (site AGGTCATCTAG) = 1.0

[ask] Is recombinant UMI read abundance (log10) for GTATGCACATGGACCGGTTTTCCCGGTAATCCGTATTTGTG (site GTATGCACTGA) at or above 0.1?
[reply] 1.0

[ask] Is recombinant UMI read abundance (log10) for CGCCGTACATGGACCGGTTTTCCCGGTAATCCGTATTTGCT (site CGCCTTACTAG) at or above 0.1?
[reply] 0.0

[ask] I'd appreciate it if you could say whether GTGGCAACATGGACCGGTTTTCCCGGTAATCCGTATTTGTA (site GTGGCAACTTA) has recombinant UMI read abundance (log10) at least equal to 0.1.
[reply] 1.0

[ask] # check: recombinant UMI read abundance (log10) of GGTACAACATGGACCGGTTTTCCCGGTAATCCGTATTTGTA (site GGTTCAACTTA) is greater than or equal to 0.1
[reply] 0.0

====

I'd be grateful if you could share measured recombinant UMI read abundance (log10) for these entries.
Experiment: recombinant UMI read abundance after kanamycin selection (control-corrected) (log10(CPM+1)); higher = more efficient recombination; extreme values may be limits of the assay; sequences stand for … in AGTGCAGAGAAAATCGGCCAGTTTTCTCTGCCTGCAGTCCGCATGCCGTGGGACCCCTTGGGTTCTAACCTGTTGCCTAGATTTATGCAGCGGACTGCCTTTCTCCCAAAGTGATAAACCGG…AGGTTGGTTTCACT; site = the 11-nt donor
Numbers only.

ACCCGAACATGGACCGGTTTTCCCGGTAATCCGTATTTGTC (site ACCCGAACTGA) = 1.95
CCCTTCGCATGGACCGGTTTTCCCGGTAATCCGTATTTGGG (site CCCTTCACTCC) = 0.0167

We now examine a further sequence.
[ask] Data request, read-out recombinant UMI read abundance (log10), for AGGGCACCATGGACCGGTTTTCCCGGTAATCCGTATTTGCA (site GGGGCACCTTG)
[reply] 0

====

Provide the recorded recombinant UMI read abundance (log10) for the entries that follow.
Test: recombinant UMI read abundance after kanamycin selection (control-corrected) (log10(CPM+1)); higher = more efficient recombination; extreme values may be limits of the assay; sequences stand for … in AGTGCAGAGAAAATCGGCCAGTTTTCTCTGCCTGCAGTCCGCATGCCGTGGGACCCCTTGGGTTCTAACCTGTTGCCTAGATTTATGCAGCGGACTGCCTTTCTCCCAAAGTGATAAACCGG…AGGTTGGTTTCACT; site = the 11-nt donor
Give bare numbers.

Some solved entries appear below for comparison.
ATCGTCCCATGGACCGGTTTTCCCGGTAATCCGTATTTGAT (site ATCGTCCCTAT) = 0.563
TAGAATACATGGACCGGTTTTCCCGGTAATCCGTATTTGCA (site TAGACTACTTG) = 0.486
CACGGCACATGGACCGGTTTTCCCGGTAATCCGTATTTGTT (site CACGGCGCTAA) = 0.6
CACTCATCATGGACCGGTTTTCCCGGTAATCCGTATTTGCC (site CACTCGTCTGG) = 0
GGCAATCCATGGACCGGTTTTCCCGGTAATCCGTATTTGAG (site GGCAATCCTCT) = 0.41
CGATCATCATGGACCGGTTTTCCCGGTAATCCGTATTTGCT (site CGCCCATCTAG) = 0.133
AATATAACATGGACCGGTTTTCCCGGTAATCCGTATTTGCT (site AATCTAACTAG) = 0.615
CACGTCACATGGACCGGTTTTCCCGGTAATCCGTATTTGAG (site CACGTCACTCT) = 1.36

Record recombinant UMI read abundance (log10) per entry; entries follow.
1. CGGAAGACATGGACCGGTTTTCCCGGTAATCCGTATTTGCC (site CGGAAGACTGG)
2. CGTGGACCATGGACCGGTTTTCCCGGTAATCCGTATTTGTT (site CGTGGATCTAA)
3. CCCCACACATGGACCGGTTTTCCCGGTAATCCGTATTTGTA (site CCCCACACTAA)
4. GATTATCCATGGACCGGTTTTCCCGGTAATCCGTATTTGAT (site GATTATCCTAA)
5. TAGAGTCCATGGACCGGTTTTCCCGGTAATCCGTATTTGTA (site TACAGTCCTTA)
6. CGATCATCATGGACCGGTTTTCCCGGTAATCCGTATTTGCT (site CGATCCACTAG)
7. CACTCATCATGGACCGGTTTTCCCGGTAATCCGTATTTGCC (site CACTCTTCTGG)

[reply]
2.59
0.722
0.0177
0.0183
0.159
0.00991
0

====

Assay: recombinant UMI read abundance after kanamycin selection (control-corrected) (log10(CPM+1)); higher = more efficient recombination; extreme values may be limits of the assay; sequences stand for … in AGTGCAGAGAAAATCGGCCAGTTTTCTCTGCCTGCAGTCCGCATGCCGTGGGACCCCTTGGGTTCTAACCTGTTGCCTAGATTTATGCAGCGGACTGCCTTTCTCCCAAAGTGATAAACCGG…AGGTTGGTTTCACT; site = the 11-nt donor
measurement.type: recombinant UMI read abundance (log10)
Give bare numbers.

Observe how each entry below is paired with its result.
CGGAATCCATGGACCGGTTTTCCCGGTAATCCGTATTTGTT (site CGGAGTCCTAT) = 0
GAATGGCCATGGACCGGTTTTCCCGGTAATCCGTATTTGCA (site GCATGGCCTTG) = 0
AACTGCACATGGACCGGTTTTCCCGGTAATCCGTATTTGCT (site AACTGCACTAG) = 1.96
CACACTGCATGGACCGGTTTTCCCGGTAATCCGTATTTGTA (site CACACTGCTTA) = 1.72
CTAGTACCATGGACCGGTTTTCCCGGTAATCCGTATTTGAT (site CTAGTACCTAT) = 0
CCATCGACATGGACCGGTTTTCCCGGTAATCCGTATTTGTT (site CAATCGACTAA) = 0.00346
CTTGTGTCATGGACCGGTTTTCCCGGTAATCCGTATTTGAC (site CTAGTATCTGT) = 0
CCGCGTACATGGACCGGTTTTCCCGGTAATCCGTATTTGTT (site CCGCGTACTAA) = 0.0381

Could I get recombinant UMI read abundance (log10) for every one of these entries?
1. ATCTATACATGGACCGGTTTTCCCGGTAATCCGTATTTGAT (site ATCTATACTCT)
2. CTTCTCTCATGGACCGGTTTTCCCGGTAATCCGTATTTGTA (site CTTCTCTCTAA)
3. GGCGCTACATGGACCGGTTTTCCCGGTAATCCGTATTTGAT (site GGCGCTACTAT)
4. TGGCCAGCATGGACCGGTTTTCCCGGTAATCCGTATTTGGC (site TGGCCCGCTGC)

[reply]
1. 0.147
2. 0.394
3. 0.866
4. 0

====

Kindly supply the reported recombinant UMI read abundance (log10) values for the records listed here.
Assay: recombinant UMI read abundance after kanamycin selection (control-corrected) (log10(CPM+1)); higher = more efficient recombination; extreme values may be limits of the assay; sequences stand for … in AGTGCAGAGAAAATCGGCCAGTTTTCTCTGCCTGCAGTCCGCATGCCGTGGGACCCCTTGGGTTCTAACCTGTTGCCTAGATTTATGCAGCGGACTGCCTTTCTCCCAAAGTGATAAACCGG…AGGTTGGTTTCACT; site = the 11-nt donor
Give bare numbers.

Here is how some sequences turned out for recombinant UMI read abundance (log10).
CCGCCTCCATGGACCGGTTTTCCCGGTAATCCGTATTTGGC (site CCGCCTCCTGC) = 0
AATGTGTCATGGACCGGTTTTCCCGGTAATCCGTATTTGAT (site AATGTGTCTGT) = 0
CGTTCGACATGGACCGGTTTTCCCGGTAATCCGTATTTGAG (site CGTTGGACTCT) = 0.0108
AATGCAACATGGACCGGTTTTCCCGGTAATCCGTATTTGCT (site AATGTAACTAG) = 0
TTATAAGCATGGACCGGTTTTCCCGGTAATCCGTATTTGAG (site TTATAAGCTCT) = 1.65
CTTGTGGCATGGACCGGTTTTCCCGGTAATCCGTATTTGGA (site CTTGTGGCTTC) = 0.306
AACTCCGCATGGACCGGTTTTCCCGGTAATCCGTATTTGAC (site AACTCCGCTGT) = 1.92
GAAGTCGCATGGACCGGTTTTCCCGGTAATCCGTATTTGCG (site GTAGTCGCTCG) = 0.023

Required: recombinant UMI read abundance (log10), one value per sequence below.
1. TAGTGTACATGGACCGGTTTTCCCGGTAATCCGTATTTGGT (site TAGTGTACTAC)
2. GGTGTTCCATGGACCGGTTTTCCCGGTAATCCGTATTTGGT (site GGTGTTCCTAC)
3. CTCAACACATGGACCGGTTTTCCCGGTAATCCGTATTTGCT (site CTCAACACTAG)
4. CTTAATACATGGACCGGTTTTCCCGGTAATCCGTATTTGGC (site CCTAATACTGC)

[reply]
1: 0.534; 2: 0.0141; 3: 2; 4: 0
